- Tested on: MV4-11
- Assay Procedure: Oncology cell growth assay, MV4-11
- Format: cell-based, human
- Run Conditions: Homo sapiens; MV4-11, AML (acute myeloid) leukemia; gIC50, 72 hours
Measure: pIC50
Answer as the number alone; pIC50 is minus log10 of concentration in mol/L.

Incoming: Tell me the measured pIC50 of COc1cc2c(cc1-c1c(C)noc1C)ncc1nc(C3CC3)n([C@H](C)COC(F)F)c12.Cl [2(l), hydrochloride] , please.
Outgoing: 6.81

---

- Assay Procedure: Liver microsome stability, mouse
- Format: in vitro ADME, mouse (CD-1
- Run Conditions: male, CD-1, mouse, pooled mouse liver microsomes, 1 μM compound, 0.5 mg/ml microsomes, 37° C., read-out: % recovery Mouse Liver Microsomes (MLM) (30 min)
Measure: recovery at 30 min, 1 μM (%)
Write the number in % without appending the unit.

Incoming: // recovery at 30 min, 1 μM lookup, key: COc1cc2c(cc1-c1c(C)noc1C)ncc1nc(C3CCCCC3)n([C@H](C)COC(F)F)c12 [2(j)]
Outgoing: 7

Incoming: Quick one: recovery at 30 min, 1 μM for COc1cc2c(cc1-c1c(C)noc1C)ncc1nc(C3CCOCC3)n(CCOC(F)F)c12 [2(n)] ?
Outgoing: 74.8

Incoming: Could you share which recovery at 30 min, 1 μM value was measured for COc1cc2c(cc1-c1c(C)noc1C)ncc1nc(CN3CCC(F)(F)CC3)n([C@H](C)COC(F)F)c12 [3(f)] ?
Outgoing: 2.6

Incoming: Quick check: recovery at 30 min, 1 μM of COc1cc2c(cc1-c1c(C)noc1C)ncc1nc(CN3CC(F)(F)C3)n([C@H](C)COC(F)F)c12 [3(j)] ?
Outgoing: 8

Incoming: I would be grateful if you could share the reported recovery at 30 min, 1 μM for COc1cc2c(cc1-c1c(C)noc1C)ncc1nc(C3CC3)n([C@H](C)COC(F)F)c12.Cl [2(l), hydrochloride] .
Outgoing: 3

Incoming: Sample COc1cc2c(cc1-c1c(C)noc1C)ncc1nc(CN(C)C)n([C@H](C)COC(F)F)c12 [3(b)] — what was its recovery at 30 min, 1 μM?
Outgoing: 0.5

Incoming: Given the entry CNCc1nc2cnc3cc(-c4c(C)noc4C)c(OC)cc3c2n1[C@H](C)COC(F)F [3(g)] , report its measured recovery at 30 min, 1 μM.
Outgoing: 0.1

Incoming: Requested field: recovery at 30 min, 1 μM. Item: COc1cc2c(cc1-c1c(C)noc1C)ncc1nc(C3CCCC3)n([C@H](C)COC(F)F)c12 [2(k)]
Outgoing: 0.6
